FYI, the data here is from ChEMBL document CHEMBL3399936.

procedure_text: Half life in human liver microsomes at 1 uM by LC/MS/MS analysis
Format: ADME
test_readout: half-life at 1 µM (min)
Please give a number only; it is taken to be in min.

IN: For the compound shown here, O=C(Nc1cc(C(F)(F)F)on1)N1CCCN(C(=O)c2ccc(C(F)(F)F)cn2)CC1 , give the reported half-life at 1 µM.
OUT: 9

----------
For each entry below, report its solubility value.
procedure_text: Solubility of the compound at pH 7.4 after 16 to 18 hrs by UV spectrophotometry
Format: physicochemical
test_settings: buffer
Please give a number only; it is taken to be in µg/mL.

IN: For the compound shown here, CC(C)(C)c1cc(NC(=O)C(C)(C)S(=O)(=O)c2ccc(C(F)(F)F)cn2)no1 , give the reported solubility.
OUT: 12

IN: Same for O=C(Nc1cc(C(F)(F)F)on1)N1CCCN(C(=O)c2ccc(C(F)(F)F)cn2)CC1
OUT: 0.4

----------
experimental_target: Cannabinoid receptor 1 (Homo sapiens)
Sequence (P21554 whole entry): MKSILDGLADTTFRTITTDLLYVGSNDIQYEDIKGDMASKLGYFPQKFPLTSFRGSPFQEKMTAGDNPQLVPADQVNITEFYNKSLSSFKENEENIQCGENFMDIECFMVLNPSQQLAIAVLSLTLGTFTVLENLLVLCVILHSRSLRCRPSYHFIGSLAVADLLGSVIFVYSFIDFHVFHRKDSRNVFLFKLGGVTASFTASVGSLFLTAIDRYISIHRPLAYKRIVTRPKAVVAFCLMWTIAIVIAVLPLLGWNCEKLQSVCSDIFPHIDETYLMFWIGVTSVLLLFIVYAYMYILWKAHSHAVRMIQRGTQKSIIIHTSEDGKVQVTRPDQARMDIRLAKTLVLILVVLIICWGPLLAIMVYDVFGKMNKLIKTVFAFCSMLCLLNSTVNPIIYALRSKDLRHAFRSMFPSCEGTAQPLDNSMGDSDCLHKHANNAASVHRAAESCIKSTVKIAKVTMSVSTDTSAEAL
procedure_text: Inhibition of human CB1 receptor expressed in CHO cells assessed as inhibition of forskolin-induced cAMP accumulation after 30 mins
For each entry below, report its pEC50 value.
Scale: negative log10 of molar concentration, which is what pEC50 denotes.

IN: For the compound shown here, CC(C)(C)c1cc(NC(=O)[C@]2(C)CCCN2c2ccc(C(F)(F)F)cn2)no1 , give the reported pEC50.
OUT: 9.30

IN: Same for CC(C)(C)c1cc(NC(=O)[C@@H]2CCCN2c2ncc(C(F)(F)F)cc2Cl)no1
OUT: 8.15

IN: Same for CC(C)(C)c1cc(NC(=O)[C@]2(C)CCCN2c2ccc(C(F)(F)F)cc2)no1
OUT: 7.82

IN: Same for CC(C)(C)c1cc(NC(=O)C(C)(C)S(=O)(=O)c2ccc(C(F)(F)F)cc2)no1
OUT: 6.38

IN: Same for CC(C)(C)c1cc(NC(=O)C(C)(C)S(=O)(=O)c2ccc(C(F)(F)F)cn2)no1
OUT: 6.38

IN: Same for O=C(Nc1cc(C(F)(F)F)on1)N1CCCN(C(=O)c2ccc(C(F)(F)F)cc2)CC1
OUT: 6.00

IN: Same for CC(C)(C)c1cc(NC(=O)[C@]2(C)CCCN2c2ccc(Cl)cc2)no1
OUT: 7.27

IN: Same for O=C(Nc1cc(C(F)(F)F)on1)N1CCCN(C(=O)c2ccc(C(F)(F)F)cn2)CC1
OUT: 6.60

----------
Organism: Homo sapiens
procedure_text: Ratio of EC50 for human CB1 receptor to EC50 for human CB2 receptor
Mark label 1 only for Ratio EC50 values smaller than 100; exact matches and larger values are label 0.

IN: Hello, is Ratio EC50 of the following compound strictly smaller than 100? CC(C)(C)c1cc(NC(=O)[C@]2(C)CCCN2c2ccc(C(F)(F)F)cc2)no1
OUT: label 1

IN: Same for CC(C)(C)c1cc(NC(=O)C(C)(C)S(=O)(=O)c2ccc(C(F)(F)F)cc2)no1
OUT: label 0

IN: Same for CC(C)(C)c1cc(NC(=O)C(C)(C)S(=O)(=O)c2ccc(C(F)(F)F)cn2)no1
OUT: label 0

IN: Same for CC(C)(C)c1cc(NC(=O)[C@@H]2CCCN2c2ncc(C(F)(F)F)cc2Cl)no1
OUT: label 1

IN: Same for CC(C)(C)c1cc(NC(=O)[C@]2(C)CCCN2c2ccc(C(F)(F)F)cn2)no1
OUT: label 1

IN: Same for O=C(Nc1cc(C(F)(F)F)on1)N1CCCN(C(=O)c2ccc(C(F)(F)F)cc2)CC1
OUT: label 0

IN: Same for CC(C)(C)c1cc(NC(=O)[C@]2(C)CCCN2c2ccc(Cl)cc2)no1
OUT: label 0

IN: Same for O=C(Nc1cc(C(F)(F)F)on1)N1CCCN(C(=O)c2ccc(C(F)(F)F)cn2)CC1
OUT: label 1

----------
experimental_target: Cannabinoid receptor 2 (Homo sapiens, UniProt P34972)
Sequence (P34972 whole entry): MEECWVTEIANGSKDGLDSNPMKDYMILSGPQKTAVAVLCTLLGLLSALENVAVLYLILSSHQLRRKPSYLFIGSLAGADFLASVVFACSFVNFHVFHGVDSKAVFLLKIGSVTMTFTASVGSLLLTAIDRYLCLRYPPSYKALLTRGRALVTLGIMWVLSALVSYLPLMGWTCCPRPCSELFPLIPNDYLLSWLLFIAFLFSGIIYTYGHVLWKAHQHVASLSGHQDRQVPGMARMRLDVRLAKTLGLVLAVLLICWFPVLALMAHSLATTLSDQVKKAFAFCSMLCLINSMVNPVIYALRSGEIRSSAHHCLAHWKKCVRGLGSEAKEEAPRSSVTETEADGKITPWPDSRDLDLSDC
procedure_text: Inhibition of human CB2 receptor expressed in CHO cells assessed as inhibition of forskolin-induced cAMP accumulation after 30 mins
test_readout: pEC50
Scale: negative log10 of molar concentration, which is what pEC50 denotes.

IN: For the compound shown here, O=C(Nc1cc(C(F)(F)F)on1)N1CCCN(C(=O)c2ccc(C(F)(F)F)cn2)CC1 , give the reported pEC50.
OUT: 8.30

IN: Same for CC(C)(C)c1cc(NC(=O)C(C)(C)S(=O)(=O)c2ccc(C(F)(F)F)cn2)no1
OUT: 8.52

IN: Same for CC(C)(C)c1cc(NC(=O)C(C)(C)S(=O)(=O)c2ccc(C(F)(F)F)cc2)no1
OUT: 9.11

IN: Same for CC(C)(C)c1cc(NC(=O)[C@]2(C)CCCN2c2ccc(C(F)(F)F)cc2)no1
OUT: 9.54

IN: Same for O=C(Nc1cc(C(F)(F)F)on1)N1CCCN(C(=O)c2ccc(C(F)(F)F)cc2)CC1
OUT: 8.85

IN: Same for CC(C)(C)c1cc(NC(=O)[C@]2(C)CCCN2c2ccc(C(F)(F)F)cn2)no1
OUT: 10.40
